Listed next: entries and their corresponding pIC50.
Study system: Liver carboxylesterase (Sus scrofa)
Sequence (Q29550 whole entry): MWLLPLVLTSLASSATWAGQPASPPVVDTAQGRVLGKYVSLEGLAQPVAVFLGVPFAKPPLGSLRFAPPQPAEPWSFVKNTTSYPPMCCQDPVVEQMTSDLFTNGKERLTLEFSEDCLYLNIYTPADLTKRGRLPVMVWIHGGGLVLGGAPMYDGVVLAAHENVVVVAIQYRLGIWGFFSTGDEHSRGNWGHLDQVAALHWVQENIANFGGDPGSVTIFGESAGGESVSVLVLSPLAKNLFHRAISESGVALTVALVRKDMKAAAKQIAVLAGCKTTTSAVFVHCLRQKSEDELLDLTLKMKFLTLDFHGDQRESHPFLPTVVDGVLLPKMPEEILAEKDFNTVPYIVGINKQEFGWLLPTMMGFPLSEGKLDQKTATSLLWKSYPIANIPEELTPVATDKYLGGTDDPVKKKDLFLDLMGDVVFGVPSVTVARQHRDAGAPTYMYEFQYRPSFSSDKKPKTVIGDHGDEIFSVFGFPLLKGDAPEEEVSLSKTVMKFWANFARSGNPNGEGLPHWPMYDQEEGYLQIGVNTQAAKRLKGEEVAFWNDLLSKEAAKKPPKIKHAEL
Method summary: Inhibition of porcine liver carboxylesterase using 4-nitrophenol acetate as substrate by spectrophotometric analysis
Condition details: read-out: IC50
pIC50: −log10 of the molar value.

>  <Molecule>
I.ICC1CN=C(Nc2ccc3c(c2)oc2ccccc23)S1 (stereo not drawn)

>  <Study system>
Liver carboxylesterase (Sus scrofa)

>  <pIC50>
< 4.00

$$$$

Prompt: Entry under review: Clc1ccccc1CN(Cc1cccnc1)C1=NCC(CI)S1.I (stereo not drawn) . Reported pIC50?
Response: < 4.00

Prompt: Entry under review: Br.Clc1ccc(CN(Cc2cccnc2)C2=NCC(CBr)S2)cc1 (stereo not drawn) . Reported pIC50?
Response: < 4.00

Origin of values: ChEMBL document CHEMBL3751845
